Source listed as paper PMC9967275.

targetUnderTest: TbrCatL (Trypanosoma brucei rhodesiense, UniProt Q95PM0)
Construct: Conor Caffrey (University of California San Diego)
Sequence (Q95PM0 entry or part of it): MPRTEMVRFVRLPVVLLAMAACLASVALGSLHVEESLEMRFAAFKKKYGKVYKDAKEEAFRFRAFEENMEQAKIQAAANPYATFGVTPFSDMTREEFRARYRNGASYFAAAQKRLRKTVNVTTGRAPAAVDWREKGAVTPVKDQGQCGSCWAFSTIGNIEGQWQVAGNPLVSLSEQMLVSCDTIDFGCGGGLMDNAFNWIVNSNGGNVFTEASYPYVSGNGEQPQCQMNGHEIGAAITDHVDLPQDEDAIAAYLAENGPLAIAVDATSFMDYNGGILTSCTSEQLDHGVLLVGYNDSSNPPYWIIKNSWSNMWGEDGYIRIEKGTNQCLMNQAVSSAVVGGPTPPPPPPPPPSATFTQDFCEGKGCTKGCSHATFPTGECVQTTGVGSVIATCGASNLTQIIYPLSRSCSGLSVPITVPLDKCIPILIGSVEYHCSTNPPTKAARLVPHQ
testProtocol: TbrCatL enzymatic inhibition assay (cleavage of fluorogenic substrate Z-FR-AMC);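 note: at 5 µM compound concentration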
Format: biochemical
conditionDescription: 10’ (pre-incubation); sheet Screening results
assayMetric: TbrCatL Inhibition 10’ (%)
Please respond with the number in % and leave the unit unwritten.

Study these solved cases before continuing.
smilesStructure: CS(=O)(=O)c1ccccc1C(=O)N(Cc1ccccc1)c1ccccc1
targetUnderTest: TbrCatL (Trypanosoma brucei rhodesiense, UniProt Q95PM0)
assayMetric: TbrCatL Inhibition 10’
unitsOfMeasure: %
numericResult: -1.9
--
smilesStructure: CCN(CC)S(=O)(=O)c1ccc(C(=O)Nc2cc(C)nn2-c2nc(C)c(C)c(=O)[nH]2)cc1
targetUnderTest: TbrCatL (Trypanosoma brucei rhodesiense, UniProt Q95PM0)
assayMetric: TbrCatL Inhibition 10’
unitsOfMeasure: %
numericResult: -29
--
smilesStructure: Cc1ccccc1CN1CCC(O)(c2ccc(Cl)c(C(F)(F)F)c2)CC1
targetUnderTest: TbrCatL (Trypanosoma brucei rhodesiense, UniProt Q95PM0)
assayMetric: TbrCatL Inhibition 10’
unitsOfMeasure: %
numericResult: -17
--
smilesStructure: Cc1cc(C(=O)Nc2cnn(Cc3ccc(Cl)cc3Cl)c2)no1
targetUnderTest: TbrCatL (Trypanosoma brucei rhodesiense, UniProt Q95PM0)
assayMetric: TbrCatL Inhibition 10’
unitsOfMeasure: %
numericResult: -16
--
smilesStructure: CCOC(=O)NC(=O)c1ccsc1NC(=O)c1nc2ccccc2s1
targetUnderTest: TbrCatL (Trypanosoma brucei rhodesiense, UniProt Q95PM0)
assayMetric: TbrCatL Inhibition 10’
unitsOfMeasure: %
numericResult: 0.3
--
smilesStructure: CN(C)c1cc(NC(=O)Nc2ccccc2)c2ccccc2n1
targetUnderTest: TbrCatL (Trypanosoma brucei rhodesiense, UniProt Q95PM0)
assayMetric: TbrCatL Inhibition 10’
unitsOfMeasure: %
numericResult: 20
--
smilesStructure: C[C@H]1COC2(CCN(c3nc(=O)c4cc(C(F)(F)F)cc([N+](=O)[O-])c4s3)CC2)O1
targetUnderTest: TbrCatL (Trypanosoma brucei rhodesiense, UniProt Q95PM0)
assayMetric: TbrCatL Inhibition 10’
unitsOfMeasure: %
numericResult: 2.8
--
smilesStructure: CNC(=O)c1nn(C)c2c1C(C)(C)Cc1cnc(Nc3ccc(N4CCN(C)CC4)cc3)nc1-2
targetUnderTest: TbrCatL (Trypanosoma brucei rhodesiense, UniProt Q95PM0)
assayMetric: TbrCatL Inhibition 10’
unitsOfMeasure: %
numericResult: 1.5

Would you kindly look at the next entry?
Please look up its TbrCatL Inhibition 10’: `c1ccc(Oc2ccc(-c3cc(C4CCOCC4)[nH]n3)cc2)cc1` 12

###

Entries and their Cruzain Inhibition 10’
targetUnderTest: cruzain (Trypanosoma cruzi);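 note: at 5 µM compound concentration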
Sequence (P25779 123-337 limits assumed): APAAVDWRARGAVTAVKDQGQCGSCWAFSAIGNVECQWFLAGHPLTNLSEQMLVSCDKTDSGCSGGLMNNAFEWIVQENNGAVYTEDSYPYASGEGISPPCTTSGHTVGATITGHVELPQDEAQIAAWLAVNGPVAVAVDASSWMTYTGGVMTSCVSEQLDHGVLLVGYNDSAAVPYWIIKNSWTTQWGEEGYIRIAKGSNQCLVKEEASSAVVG
testProtocol: biochemical
conditionDescription: 10’ (pre-incubation); sheet Screening results

compound: Cc1ccc2cc(C3NC(=O)c4ccccc4N3)c(Cl)nc2c1 (centres unmarked)
Cruzain Inhibition 10’: 7%
//
compound: Cc1cc2nc(NC(=O)C(C)(C)C)nc(Cl)c2n1Cc1ccc(Cl)cc1
Cruzain Inhibition 10’: 10%
//
compound: CC(=O)NC[C@H]1CN(c2ccc(-c3ccc(CNCc4cn[nH]n4)cc3)c(F)c2)C(=O)O1
Cruzain Inhibition 10’: 4%
//
compound: CC(C)c1ncc(-c2ccncc2)c(C2CCC(CNC(=O)c3cccnc3)CC2)n1 (centres unmarked)
Cruzain Inhibition 10’: 1.2%
//
compound: FC(F)(F)c1nnc2ccc(Cl)nn12
Cruzain Inhibition 10’: -4%
//
compound: CC(Oc1cccc(Cl)c1)C(=O)Nc1ccc2oc(-c3ccncc3)nc2c1 (centres unmarked)
Cruzain Inhibition 10’: 14%
//
compound: O=C(Nc1cccnc1)c1c(O)c2cccc3c2n(c1=O)CC3
Cruzain Inhibition 10’: 8%
//
compound: CO[C@@H](C(=O)N1Cc2[nH]nc(NC(=O)c3ccc(N4CCN(C)CC4)cc3)c2C1)c1ccccc1
Cruzain Inhibition 10’: 12%

Entry `CC(=O)Oc1ccccc1C(=O)Nc1ncc([N+](=O)[O-])s1` has what Cruzain Inhibition 10’? 4%

Would you mind telling me what Cruzain Inhibition 10’ value was observed for CC(C)C(NC(=O)Cc1cccc2ccccc12)C(=O)Nc1cccc(C#N)c1 (centres unmarked) ? -0.4%

Query: Cruzain Inhibition 10’; subject: `O=C(c1cc2ccccc2o1)N1CCN(Cc2ccc3c(c2)OCO3)CC1` -3.3%

Requested read-out: Cruzain Inhibition 10’. Entry: `COc1cccc(-n2nnnc2S(=O)(=O)Cc2ccccc2)c1` 12%

Consider the compound shown here: `O=C(Cn1ccnc1[N+](=O)[O-])NCc1ccccc1` What is its recorded Cruzain Inhibition 10’? 4%

// Cruzain Inhibition 10’ lookup, key: `NC(=O)c1cc(Br)ccc1OCCOc1ccccc1` 8%

Any idea what Cruzain Inhibition 10’ was measured for `Cc1cccc(Cn2ccc(NC(=O)c3ccc4c(c3)OCO4)n2)c1` ? 2.6%

Please look up its Cruzain Inhibition 10’: `CS(=O)(=O)N1CCC(CCn2nc(Cc3cccc4ccccc34)c3c(N)ncnc32)CC1` 11%

Item under review: `CC(=O)Nc1ccc(NC(=O)c2cc(-c3cc(Cl)ccc3O)n[nH]2)cc1` . Reported Cruzain Inhibition 10’? -0.9%

I would be grateful if you could share the reported Cruzain Inhibition 10’ for `COc1ccc(Nc2ccccc2NC(=O)c2ccc(=O)[nH]c2)cc1` . 0.5%

Item `COc1ccc(C2=NCCN2)cc1-c1cn(-c2cccc(C3=NCCN3)c2)nn1` has what recorded Cruzain Inhibition 10’? 13%

Data request, read-out Cruzain Inhibition 10’, for `COc1cc2ncnc(NC3CCN(Cc4ccccc4)CC3)c2cc1OC` 10%

Endpoint output: Cruzain Inhibition 10’ of `CCCn1nnc(NC(=O)COc2ccc(C3CCCCC3)cc2)n1` . Value? -3.3%

Cruzain Inhibition 10’ lookup needed for `COC(=O)c1ccc(F)cc1NS(=O)(=O)c1cccc(-c2cnn(Cc3ccccc3)c2)c1` , thanks. -5%

What value of measured Cruzain Inhibition 10’ is listed for `Cc1c[nH]c(CCNC(=O)c2cc(-c3ccc(Cl)cc3)cs2)n1` ? 22%

I am curious: what Cruzain Inhibition 10’ value has been reported for `CCN(CC)S(=O)(=O)c1ccc(C(=O)Nc2cc(C)nn2-c2nc(C)c(C)c(=O)[nH]2)cc1` ? -3.8%

Give its Cruzain Inhibition 10’ value. Item: `Clc1ccc(CCNc2cc(-c3ccccc3)nc3ncnn23)cc1` 14%

Can you look up the measured Cruzain Inhibition 10’ of COCC(C)NC(=O)CSc1ncnc2sc(-c3ccccc3)cc12 (centres unmarked) for me? 16%
